Measured composite z-score values are reported for all entries that follow.
- System: XIP peptide (Xip251-270) binding
- Test Summary: small-molecule binders of XIP peptide, primary screen, biochemical, small-molecule microarray, fluorescence 635/667 nm, 0.1 µg/mL protein (AID 1182)
- Run Parameters: fluorescent protein binding, 635 nm, higher = more signal, called active from +8 up or from −8 down
Active and inactive are the calls of the source.

Compound	Tested Target	composite z-score
CN(C)CCCCNC(=O)[C@H]1C[C@H]2C(=O)N3CCC[C@H]3C(=O)N2[C@H]1c1ccc(O)cc1	XIP peptide (Xip251-270) binding	-0.301 (inactive)
COC(=O)[C@@]1(Cc2ccccc2)[C@H]2c3cc(C(=O)N4CCCC4)n(Cc4ccsc4Br)c3C[C@H]2CN1C(=O)c1ccccc1	XIP peptide (Xip251-270) binding	0.427 (inactive)
CCOC(=O)C[C@H]1[C@H](OC(=O)Cc2ccc3c(c2)OCO3)[C@@H](NC(=O)Cc2ccc(OC)cc2)c2cc(OCCCO)ccc2N1C(=O)c1ccccc1	XIP peptide (Xip251-270) binding	1.08 (inactive)
COc1cc(CO)cc(I)c1O[C@H]1C=C(C(=O)NCCO)C[C@@H](N(CC2CCCCC2)C(=O)c2ccc(C(F)(F)F)cc2)[C@@H]1O	XIP peptide (Xip251-270) binding	-0.175 (inactive)
CCCCN1CC=CC23O[C@@H]4C=CCOC(=O)[C@@H]4[C@H]2C(=O)N(C(C)CO)[C@@H]3C1=O (some centres not stated)	XIP peptide (Xip251-270) binding	-0.161 (inactive)
CC(C)C(=C=CC[C@@H](O)c1ccccc1OCCO)C[C@@H](O)COCc1ccccc1	XIP peptide (Xip251-270) binding	0.493 (inactive)
Cc1ccc(S[C@]2(C(=O)NC(C)C)CC(=O)N(Cc3ccccc3C(F)(F)F)[C@@H]2c2ccc(CO)cc2I)cc1	XIP peptide (Xip251-270) binding	0.136 (inactive)

* * *

- Test Summary: small-molecule microarray binders of probe aXIP, primary screen, biochemical, NeuroSMM set, 635/667 nm fluorescence (AID 1119);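 further: probe is the protein aXip251-270 applied at 1 µg/mL to compound-printed slides; binding of probe to printed compounds measured as 667 nm fluorescence plus signal to noise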
- Run Parameters: higher = more signal, called active from +8 up or from −8 down
Here, each record is paired with measured composite Z-score data.

Molecule	composite Z-score
CCOC(=O)[C@@H]1[C@@H]2C(=O)N(CC)C(=O)[C@@H]2C[C@@H]1Sc1ccccc1	-0.889
C=C(COC)/C(=C/C[C@@H](OC(=O)c1ccncc1)c1ccc(CO)o1)c1cnc2ccccc2c1	1.35
CC1CC/C=C\[C@H]2OC34C=CCN(C(C)C)C(=O)[C@H]3N(CCCCCO)C(=O)[C@@H]4C2C(=O)O1 (some centres undefined)	-0.362
C=C(COC)/C(=C/C[C@@H](OC(=O)c1ccncc1)c1cccc(OCCO)c1)c1cnc2ccccc2c1	0.161

* * *

- Test Summary: CREB reporter modulators without forskolin, primary screen, cell-based, PC12, CRE-LacZ reporter, unstimulated (AID 1145)
- Run Parameters: no forskolin, luminescence, 4.5 h, called active from +8 up or from −8 down
Active and inactive are the calls of the source.
Possible outcomes: active, inactive

Molecule	Label Value
COCCOC(=O)N1C(=O)[C@@]2(c3ccccc31)[C@H](c1ccc(OCCO)cc1)N1[C@H](c3ccccc3)[C@H](c3ccccc3)OC(=O)[C@H]1[C@@H]2C(=O)Nc1nc2ccccc2s1	inactive
C=CC[C@@]1(C(=O)O)N=C(c2ccc(OCCCO)cc2)O[C@@H]1c1ccccc1	inactive
Cc1ccc(F)cc1S(=O)(=O)N[C@@H]1CCN(Cc2ccc(Oc3ccccc3)cc2)C1	inactive
COC(=O)[C@@]1(Cc2ccc(OC)cc2)[C@H]2c3cc(C(=O)N4CCCC4)n(CCc4cc5ccccc5[nH]4)c3C[C@H]2CN1C(=O)c1ccccc1	inactive
C=C(/C(=C/C[C@@H](OC(=O)c1ccncc1)c1ccccc1OCCO)c1cc(C(=O)OC)ccc1OC)C(C)C	active
NC(=O)NCC#Cc1ccc2c(c1)[C@]1(C(=O)N2)[C@H](C(=O)Nc2nc3ccccc3s2)[C@H]2C(=O)O[C@H](c3ccccc3)[C@H](c3ccccc3)N2[C@@H]1c1ccc(O)cc1	inactive
CO[C@H]1O[C@H](CO)[C@@H](OC(=O)c2ccc(Br)cc2)[C@@H]2OC(=O)[C@@H](Cc3ccc4ccccc4c3)C/C=C/C[C@H](Cc3ccc4ccccc4c3)C(=O)O[C@@H]12	inactive
C=C(CCCC)/C(=C/C[C@@H](OC(C)=O)c1ccc(CO)o1)c1cc(C(=O)OC)ccc1OC	inactive
CC1CC/C=C\[C@H]2OC34C=CCN(C(C)C)C(=O)[C@H]3N(CCCCCO)C(=O)[C@@H]4C2C(=O)O1 (some centres undefined)	inactive
CCCC[C@@H]1C[C@H]1[C@@H](NC(=O)c1ccccc1)c1ccc(Cl)cc1	inactive
COCCOC(=O)N1C(=O)[C@@]2(c3cc(C#CC4=CCCCC4)ccc31)[C@H](c1ccc(O)cc1)N1[C@H](c3ccccc3)[C@H](c3ccccc3)OC(=O)[C@H]1[C@@H]2C(=O)Nc1nc2ccccc2s1	inactive
C=CCN1C(=O)[C@@]2(CCC(=O)OC(C)(C)C)N=C(c3ccc(OCCCO)cc3)O[C@H]2c2ccccc21	inactive
CC(C)(C)OC(=O)CC[C@]1(C(=O)N2CCOCC2)N=C(c2ccc(OCCCO)cc2)O[C@H]1c1ccccc1	inactive
C#CCNC(=O)[C@H](Cc1ccccc1)NC(=O)[C@@H](N=[N+]=[N-])C(C)C	inactive
